B1: EHMT1 (parent)
chain: SARQGELQKVLLMLVDGIDPNFKM

Variants of: B1
Experiment notes: protein stability index of a GFP-peptide fusion (GPS, HEK-293T) (PSI 1-6); higher = more stable;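 further: lentivirally expressed fusions sorted by FACS into six bins by GFP to DsRed ratio, PSI derived from sequencing read proportions per bin multiplied by bin number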
Measurement parameters: c terminus: a fixed tail appended
Endpoint label: protein stability index

`E6H` yielded protein stability index of 2.02
